Target: HLA-B*44:05 (Homo sapiens, UniProt P01889, A223V/A65T/A93T/A95T/D201E/D98Y/E176V/E187L/E204Q/E69K/G107R/H137Y/K202T/L105A/L119I/N104T/N87E/Q56L/Q94N/R106L/R155S/R180D/S101N/S121R/S35A/S48T/T118I/V36M/W191S/Y91S)
Experiment: MHC binding assay (UV-ligand exchange, β2m ELISA, peptide exchange yield)
Conditions: binding to HLA-B*44:05
Measured parameter: Peptide exchange (MHC class I binding score, peptide exchange yield)

208 (SEFLLRIF; listed as Homo sapiens) [compound 208]    ++ (>20% = ++)
350 (EEMLENVSL; listed as Homo sapiens) [compound 350]    +++ (>50 = +++)
216 (AGSPVMRKW; listed as Homo sapiens) [compound 216]    ++ (>20% = ++)
232 (YEIRAEAL; listed as Homo sapiens) [compound 232]    ++ (>20% = ++)
316 (RLWPEPENW; listed as Homo sapiens) [compound 316]    ++ (>20% = ++)
214 (SVNPIIYGF; listed as Homo sapiens) [compound 214]    ++ (>20% = ++)

In: For the substance 146 (MEELRMLSF; listed as Homo sapiens) [compound 146] , what Peptide exchange (MHC class I binding score, peptide exchange yield) is on record?
Out: +++ (>50 = +++)

In: What do you have for 362 (SEVEYINKY; listed as Homo sapiens) [compound 362] ?
Out: +++ (>50 = +++)

In: What do you have for 376 (SESDGIEQL; listed as Homo sapiens) [compound 376] ?
Out: +++ (>50 = +++)

In: What do you have for 288 (TEHFLKKFF; listed as Homo sapiens) [compound 288] ?
Out: +++ (>50 = +++)

====

Target: HLA-B*44:05 (Homo sapiens, UniProt P01889, A223V/A65T/A93T/A95T/D201E/D98Y/E176V/E187L/E204Q/E69K/G107R/H137Y/K202T/L105A/L119I/N104T/N87E/Q56L/Q94N/R106L/R155S/R180D/S101N/S121R/S35A/S48T/T118I/V36M/W191S/Y91S)
Experiment: MHC binding assay (UV-ligand exchange, β2m ELISA, peptide exchange yield)
Details: binding to HLA-B*44:05
Measured parameter: Peptide exchange (MHC class I binding score, peptide exchange yield)

These recorded examples may help you get a feel for the data.
145 (EELRMLSF; listed as Homo sapiens) [compound 145]    ++ (>20% = ++)
353 (AETEEGIYW; listed as Homo sapiens) [compound 353]    ++++ (>75% = ++++)
219 (WEVEVGDRTDW; listed as Homo sapiens) [compound 219]    +++ (>50 = +++)
166 (EEQDFINNRY; listed as Homo sapiens) [compound 166]    ++++ (>75% = ++++)
310 (FELECPVKY; listed as Homo sapiens) [compound 310]    +++ (>50 = +++)

In: For the substance 325 (AEQEIMKKV; listed as Homo sapiens) [compound 325] , what Peptide exchange (MHC class I binding score, peptide exchange yield) is on record?
Out: ++++ (>75% = ++++)

In: What do you have for 267 (VELEVPQL; listed as Homo sapiens) [compound 267] ?
Out: ++ (>20% = ++)

In: What do you have for 195 (MEIKGTVTEF; listed as Homo sapiens) [compound 195] ?
Out: +++ (>50 = +++)

In: What do you have for 424 (EEHVYESIIRW; listed as Homo sapiens) [compound 424] ?
Out: +++ (>50 = +++)
